Test: Kinetic solubility of nanospray-dried ASDs in FaSSIF at 37° C.
Assay type: physicochemical
Conditions: thermodynamic from solid, 90 min, read-out: Solubility (μg/mL) 90 min
QUANTITY_KIND: solubility at 90 min (µg/mL)
Just the number please, in µg/mL, no unit attached.

[Q] Returns the measured solubility at 90 min for the input molecule. Input: O=[N+]([O-])c1cn2c(n1)OC[C@@H](OCc1ccc(OC(F)(F)F)cc1)C2
[A] 23.6

---

Assay: Kinetic solubility of HME ASDs in FaSSIF at 37° C.
Type: physicochemical
Details: thermodynamic from solid, after sieving (60 mesh), 180 min, read-out: Solubility (μg/mL) 180 min
QUANTITY_KIND: solubility at 180 min (µg/mL)
Just the number please, in µg/mL, no unit attached.

[Q] Returns the measured solubility at 180 min for the input molecule. Input: O=[N+]([O-])c1cn2c(n1)OC[C@@H](OCc1ccc(OC(F)(F)F)cc1)C2
[A] 31.6

---

Assay: Kinetic solubility of HME ASDs in FaSSIF at 37° C.
Type: physicochemical
Details: thermodynamic from solid, without sieving, 180 min, read-out: Solubility (μg/mL) 180 min
QUANTITY_KIND: solubility at 180 min (µg/mL)
Just the number please, in µg/mL, no unit attached.

[Q] Returns the measured solubility at 180 min for the input compound. Input: O=[N+]([O-])c1cn2c(n1)OC[C@@H](OCc1ccc(OC(F)(F)F)cc1)C2
[A] 40.7

---

Assay: Kinetic solubility of nanospray-dried ASDs in FaSSIF at 37° C.
Format: physicochemical
Details: thermodynamic from solid, 15 min, read-out: Solubility (μg/mL) 15 min
Protocol: 10 mL of FASSIF was added into 8 vials containing each ASD prepared before by nanospray drying, respectively, then the suspensions were shaken using a thermomixer at 37° C. under 100 rpm, 300 μL of suspensions were withdrawn at 15, 30, 45, 60, 90, 120 and 180 mins. The samples of suspensions were centrifuged in 96-well plates at 3000 rpm for 5 min. The supernatants were diluted with the diluent (ACN/water, 50/50) and analyzed by HPLC.
QUANTITY_KIND: solubility at 15 min (µg/mL)
Just the number please, in µg/mL, no unit attached.

[Q] Returns the measured solubility at 15 min for the input compound. Input: O=[N+]([O-])c1cn2c(n1)OC[C@@H](OCc1ccc(OC(F)(F)F)cc1)C2
[A] 22.1

---

Assay: Amorphous solubility of PA-824
Format: physicochemical
Conditions: aqueous buffer; in PBS
QUANTITY_KIND: solubility

[Q] Returns the measured solubility for the input molecule. Input: O=[N+]([O-])c1cn2c(n1)OC[C@@H](OCc1ccc(OC(F)(F)F)cc1)C2
[A] ~160 µg/mL

---

Experiment: Kinetic solubility of HME ASDs in FaSSIF at 37° C.
Type: physicochemical
Conditions: thermodynamic from solid, after sieving (60 mesh), 45 min, read-out: Solubility (μg/mL) 45 min
Protocol: 10 mL of FaSSIF was added into 4 vials containing each ASD (equivalent to 5mg API) prepared by Hot melt extrusion, respectively, then the suspensions were shaken using a thermomixer at 37° C. under 100 rpm, 300 μL of suspensions were withdrawn at 15, 30, 45, 60, 90, 120 and 180 mins. The samples of suspensions were centrifuged at 14000 rpm for 10 min. The supernatants were diluted with the diluent (ACN/water, 50/50) and analyzed by UPLC. […]
QUANTITY_KIND: solubility at 45 min (µg/mL)
Just the number please, in µg/mL, no unit attached.

[Q] Returns the measured solubility at 45 min for the input compound. Input: O=[N+]([O-])c1cn2c(n1)OC[C@@H](OCc1ccc(OC(F)(F)F)cc1)C2
[A] 32.8

---

Assay: Kinetic solubility of HME ASDs in FaSSIF at 37° C.
Type: physicochemical
Conditions: thermodynamic from solid, after sieving (60 mesh), 60 min, read-out: Solubility (μg/mL) 60 min
QUANTITY_KIND: solubility at 60 min (µg/mL)
Just the number please, in µg/mL, no unit attached.

[Q] Returns the measured solubility at 60 min for the input compound. Input: O=[N+]([O-])c1cn2c(n1)OC[C@@H](OCc1ccc(OC(F)(F)F)cc1)C2
[A] 33.5

---

Test: Kinetic solubility of Soluplus ASDs with different drug loadings in FaSSIF at 37° C.
Type: physicochemical
Details: thermodynamic from solid, Table 8, FaSSIF, 45 min, read-out: Solubility (μg/mL) 45 min
QUANTITY_KIND: solubility at 45 min
Don't forget the unit after the value.

[Q] Returns the measured solubility at 45 min for the input compound. Input: O=[N+]([O-])c1cn2c(n1)OC[C@@H](OCc1ccc(OC(F)(F)F)cc1)C2
[A] 26.1 µg/mL

---

Assay: Amorphous solubility of PA-824
Format: physicochemical
Settings: in FaSSIF V1
QUANTITY_KIND: solubility

[Q] Returns the measured solubility for the input compound. Input: O=[N+]([O-])c1cn2c(n1)OC[C@@H](OCc1ccc(OC(F)(F)F)cc1)C2
[A] ~300 µg/mL

---

Assay: Kinetic solubility of Soluplus ASDs with different drug loadings in FaSSIF at 37° C.
Assay type: physicochemical
Details: thermodynamic from solid, Table 8, FaSSIF, 60 min, read-out: Solubility (μg/mL) 60 min
QUANTITY_KIND: solubility at 60 min

[Q] Returns the measured solubility at 60 min for the input molecule. Input: O=[N+]([O-])c1cn2c(n1)OC[C@@H](OCc1ccc(OC(F)(F)F)cc1)C2 [PA-824]
[A] 26.3 µg/mL

---

Assay: Kinetic solubility of nanospray-dried ASDs in FaSSIF at 37° C.
Assay type: physicochemical
Details: thermodynamic from solid, 45 min, read-out: Solubility (μg/mL) 45 min
QUANTITY_KIND: solubility at 45 min (µg/mL)
Just the number please, in µg/mL, no unit attached.

[Q] Returns the measured solubility at 45 min for the input compound. Input: O=[N+]([O-])c1cn2c(n1)OC[C@@H](OCc1ccc(OC(F)(F)F)cc1)C2
[A] 26.1

---

Assay: Kinetic solubility of HME ASDs in FaSSIF at 37° C.
Assay type: physicochemical
Details: thermodynamic from solid, without sieving, 90 min, read-out: Solubility (μg/mL) 90 min
QUANTITY_KIND: solubility at 90 min (µg/mL)
Just the number please, in µg/mL, no unit attached.

[Q] Returns the measured solubility at 90 min for the input compound. Input: O=[N+]([O-])c1cn2c(n1)OC[C@@H](OCc1ccc(OC(F)(F)F)cc1)C2
[A] 41.3

---

Assay: Supersaturated solubility measurement in FaSSIF with 2% DMSO
Type: physicochemical
Settings: fassif, kinetic from dmso stock
QUANTITY_KIND: solubility at 16 min (µg/mL)
Just the number please, in µg/mL, no unit attached.

[Q] Returns the measured solubility at 16 min for the input compound. Input: O=[N+]([O-])c1cn2c(n1)OC[C@@H](OCc1ccc(OC(F)(F)F)cc1)C2
[A] 53.3

---

Assay: Kinetic solubility of HME ASDs in FaSSIF at 37° C.
Format: physicochemical
Conditions: thermodynamic from solid, without sieving, 60 min, read-out: Solubility (μg/mL) 60 min
QUANTITY_KIND: solubility at 60 min (µg/mL)
Just the number please, in µg/mL, no unit attached.

[Q] Returns the measured solubility at 60 min for the input molecule. Input: O=[N+]([O-])c1cn2c(n1)OC[C@@H](OCc1ccc(OC(F)(F)F)cc1)C2
[A] 46.2

---

Assay: Kinetic solubility of nano suspension after lyophilization in FaSSIF at 37° C.
Type: physicochemical
Conditions: thermodynamic from solid, Table 20, FaSSIF, 60 min, read-out: Solubility (μg/mL) 60 min
QUANTITY_KIND: solubility at 60 min (µg/mL)
Just the number please, in µg/mL, no unit attached.

[Q] Returns the measured solubility at 60 min for the input compound. Input: O=[N+]([O-])c1cn2c(n1)OC[C@@H](OCc1ccc(OC(F)(F)F)cc1)C2 [PA-824]
[A] 33.5

---

Experiment: Kinetic solubility of nano suspension after lyophilization in FaSSIF at 37° C.
Assay type: physicochemical
Conditions: thermodynamic from solid, Table 20, FaSSIF, 45 min, read-out: Solubility (μg/mL) 45 min
QUANTITY_KIND: solubility at 45 min (µg/mL)
Just the number please, in µg/mL, no unit attached.

[Q] Returns the measured solubility at 45 min for the input molecule. Input: O=[N+]([O-])c1cn2c(n1)OC[C@@H](OCc1ccc(OC(F)(F)F)cc1)C2
[A] 32.8

---

Assay: Kinetic solubility of HME ASDs in FaSSIF at 37° C.
Format: physicochemical
Details: thermodynamic from solid, after sieving (60 mesh), 90 min, read-out: Solubility (μg/mL) 90 min
QUANTITY_KIND: solubility at 90 min (µg/mL)
Just the number please, in µg/mL, no unit attached.

[Q] Returns the measured solubility at 90 min for the input molecule. Input: O=[N+]([O-])c1cn2c(n1)OC[C@@H](OCc1ccc(OC(F)(F)F)cc1)C2 [PA-824]
[A] 32.6
